Test system: primary neuronal cultures from embryonic rat brains
PROCEDURE TEXT: Rat oscillation assay (FLIPR, neuronal calcium oscillations)
Format: cell-based
APPLIED CONDITIONS: AUC of fluorescence measured 20 min after compound addition; read-out: FLIPR: IC50 [nM] 20 min
QUANTITY: IC50 (nM)
Give just the numeric value; nM need not be written.

{"COMPOUND": "COCC(Oc1cc(CNC(=O)NC2CC3(CCC3)C2)ccn1)C(F)(F)F (single isomer, unassigned) [Example 172]", "SYSTEM NAME": "primary neuronal cultures from embryonic rat brains", "ENDPOINT VALUE": 37}
{"COMPOUND": "O=C(NCc1cccc(C(F)(F)F)c1)NC1CC2(C1)CC2(F)F (single isomer, unassigned)", "SYSTEM NAME": "primary neuronal cultures from embryonic rat brains", "ENDPOINT VALUE": 152}

Request body: readout IC50, system primary neuronal cultures from embryonic rat brains, query CC(Oc1nccc(CNC(=O)NC2CC3(CCC3)C2)n1)C(F)(F)F (single isomer, unassigned) [Example 181] . Return the value. 564

Try the compound CC(Oc1cccc(C2(NC(=O)NC3CC4(CCC4)C3)CC2)c1)C(F)(F)F (single isomer, unassigned) [Example 170] 59
